Test system: RXF 393
Protocol Details: NCI tumour cell line growth inhibition, 48 h
Calls of active or inactive are those of the source. Rule as the data show it: active = GI50 up to about 1.1 µM and inactive = higher.
Outcomes: active, inactive

Molecule	Experimental System	Label
COc1cc(C2c3cc4c(cc3OC(O)C2C)OCO4)cc(OC)c1OC (stereo unspecified)	RXF 393	active
C=C1C(=O)CCC1C(=O)O (stereo unspecified)	RXF 393	inactive
CC(=O)O[C@H]1CC[C@@]2(C)C(=CC[C@H]3[C@@H]4C[C@H](N5CCOCC5)[C@H](OC(C)=O)[C@@]4(C)CC[C@@H]32)C1	RXF 393	inactive
Cc1ccc(S(=O)(=O)NC(=O)NC(CO)C(=O)O)cc1 (stereo unspecified)	RXF 393	inactive
COC(=O)c1c(O)ccc2c1c1c(n2CCc2ccccc2)C(=O)c2ccccc2C1=O	RXF 393	inactive
COc1ccc(N(C(=O)Nc2ccc(Cl)c(Cl)c2)c2ccccc2)cc1	RXF 393	inactive
FC(F)(F)c1cccnc1Sc1nc2ccccc2s1	RXF 393	inactive
Oc1cn(-c2ccc(Cl)cc2)nc1-c1nnc(Nc2ccccc2)o1	RXF 393	inactive
COc1cc(/N=N\c2ccc(OC)c(S(=O)(=O)O)c2)c(C)cc1/N=N\c1ccc(/C=C/c2ccc(/N=[N+](/[O-])c3ccc(/C=C/c4ccc(/N=N/c5cc(C)c(/N=N\c6ccc(OC)c(S(=O)(=O)O)c6)cc5OC)cc4S(=O)(=O)O)c(S(=O)(=O)O)c3)cc2S(=O)(=O)O)c(S(=O)(=O)O)c1	RXF 393	inactive
Cc1cc(NS(=O)(=O)c2ccc(/N=N/c3c(O)c(C(=O)O)cc4ccccc34)cc2)nc(C)n1	RXF 393	inactive
COC(=O)[C@H]1C=C[C@H](OC2OC(COC(C)=O)C(OC(C)=O)C(OC(C)=O)C2OC(C)=O)n2c(=O)n(-c3ccccc3)c(=O)n21 (stereo partly specified)	RXF 393	inactive
CCOC(=O)C1=C(C)NC(C)=C(C(=O)OCCNC(=O)c2ccc(N=[N+]=[N-])cc2)C1c1ccccc1C(F)(F)F (stereo unspecified)	RXF 393	inactive
COc1cc2c(cc1OC)C(=O)/C(=C/c1ccc([N+](=O)[O-])cc1)CC2	RXF 393	inactive
COC(=O)c1cccc(OC)c1C#Cc1c(OC)cccc1OC	RXF 393	inactive
O=C(O)[C@H]1NC[C@@H]2ON=C(Br)[C@@H]21	RXF 393	inactive
CCCC(=O)N(C(=O)CCC)C1=C(Cl)C(=O)c2ccccc2C1=O	RXF 393	inactive
COC(=O)C1Cc2c(OC)ccc(OC)c2CC(C(=O)OC)C1=O (stereo unspecified)	RXF 393	inactive
CCOC(=O)C1Cc2c(cc3c4c(cccc24)N(C(C)=O)C3)N(C)C1 (stereo unspecified)	RXF 393	inactive
O=C(CC(=O)Nc1ccccc1)NNC(Sc1ccccc1)c1cc(/N=N/c2ccc(Br)cc2)ccc1O (stereo unspecified)	RXF 393	inactive
NC(=O)CC1(O)C=CC(=O)C=C1	RXF 393	inactive
Cc1ccccc1Nc1nc2ccccc2nc1NS(=O)(=O)c1ccccc1	RXF 393	inactive

###

Test system: IGROV-1
Protocol Details: NCI tumour cell line growth inhibition, 48 h
Calls of active or inactive are those of the source. Rule as the data show it: active = GI50 up to about 1.1 µM and inactive = higher.
Measured GI50 by item
Measure Name: GI50

> print(dat)
                                   compound               result
1  CCOc1ccc2nc(NC(=O)/C(CC(=O)CC(C3=C(O)c4ccccc4CC3=O)c3ccccc3)=N\O)sc2c1 (stereo unspecified)  > 100 µM (inactive)
2     CC1=C2C(=O)c3ccccc3C2=C(C)S(=O)(=O)O1   > 10 µM (inactive)
3  Cc1ccc(NC(=O)c2nc(S)nc(N)c2-c2ccccc2C)cc1C  > 100 µM (inactive)
4  COc1ccc2cc(NC(=O)N/N=C\c3ccc(Cl)cc3)ccc2c1   88.7 µM (inactive)
5  COc1c(C)c(C/C=C(\C)CC/C=C(\C)CC/C=C(\C)CC/C=C(\C)CCC=C(C)C)c(OC)c(OC)c1OC   26.9 µM (inactive)
6  CC#CC1C2CCCC1(CSc1ccccc1)NC(=O)O2 (stereo unspecified)  > 100 µM (inactive)

###

GI50 overview
Tested on: OVCAR-3
Protocol Details: NCI tumour cell line growth inhibition, 48 h
Calls of active or inactive are those of the source. Rule as the data show it: active = GI50 up to about 1.1 µM and inactive = higher.
Measure Name: GI50

> print(dat)
                                    compound  experimental.system  measure.name               result
 1  CC1(CCCO)CCCCCC(C)(CCCO)C1=O (stereo not given)              OVCAR-3          GI50  > 100 µM (inactive)
 2  Cc1c2c(OCCCCN3CCN(c4ncccn4)CC3)nn(C)c(=O)c2c(C)n1-c1ccccc1              OVCAR-3          GI50   19.5 µM (inactive)
 3             O=C1C2=Cc3ccccc3CCN2c2ccccc21              OVCAR-3          GI50   91.4 µM (inactive)
 4  CC(=O)C1=C(c2ccccc2)N(C2OC(CO)C(O)C(O)C2O)C(S)=C(C#N)C1c1ccc(Cl)cc1 (stereo not given)              OVCAR-3          GI50   21.6 µM (inactive)
 5         CN(/N=C(\C(=O)O)c1ccccc1)C1=NCCN1              OVCAR-3          GI50  > 100 µM (inactive)
 6  Cc1ccccc1Nc1nc2ccccc2nc1NS(=O)(=O)c1ccccc1              OVCAR-3          GI50  > 100 µM (inactive)
 7  COc1ccc(C2=NN(c3ccccc3)C(c3cc4cc(Br)ccc4nc3Cl)C2)cc1 (stereo not given)              OVCAR-3          GI50   > 25 µM (inactive)
 8  O=C1/C(=C\c2ccccc2)C(NC2CCCCC2)c2ccccc21 (stereo not given)              OVCAR-3          GI50   1.24 µM (inactive)
 9  CNC(=O)C(C)C1C(=O)/C(=C(O)/C=C\C(C)=C\C(C)C2OC3(C)OC(C=CC34CO4)C2C)C(=O)N1C1CCC(O)C(C)O1 (stereo not given)              OVCAR-3          GI50  > 100 µM (inactive)
10  CC(C)c1cccc(C(C)C)c1NC(=O)C(=O)Cc1nc2ccc([N+](=O)[O-])cc2nc1O              OVCAR-3          GI50  > 100 µM (inactive)
11                                C=CCSSCC=C              OVCAR-3          GI50     52 µM (inactive)
12  CC(=O)c1sc2c(c1OC(=O)c1ccco1)c(=O)n(-c1ccccc1)c(=S)n2-c1ccccc1              OVCAR-3          GI50   32.8 µM (inactive)
13  COc1ccc(S(=O)(=O)Nc2ccc(-c3csc(N4C(=O)/C(=C/c5ccccc5)N=C4c4ccccc4)n3)cc2)cc1Cl              OVCAR-3          GI50   36.2 µM (inactive)
14  c1ccc(C2N=NN(c3ccccc3)C2N2CCCCC2)cc1 (stereo not given)              OVCAR-3          GI50  > 100 µM (inactive)
15  CCOC(=O)C1=C(C)NC(C)=C(C(=O)OCCNC(=O)c2ccc(N=[N+]=[N-])cc2)C1c1ccccc1C(F)(F)F (stereo not given) [AZIDOPINE]              OVCAR-3          GI50   9.06 µM (inactive)
16  Nc1ccc(C(=O)N/C(=C\C=C\c2ccco2)c2nc3c4c(ccc3[nH]2)C(=O)c2ccccc2C4=O)cc1              OVCAR-3          GI50   32.9 µM (inactive)
17  C/C=C(/CBr)CCC(Br)C(C)(C)Cl.C/C=C(\CBr)CCC(Br)C(C)(C)Cl (stereo not given)              OVCAR-3          GI50   > 10 µM (inactive)
18        CC1(C)C(=O)N=C(N)N1C(=O)OCc1ccccc1              OVCAR-3          GI50  > 100 µM (inactive)
19            CCOC(=O)NCC(=O)NCC(=O)NCC(N)=O              OVCAR-3          GI50  > 100 µM (inactive)
20  Cc1ccc(NC(=O)c2nc(S)nc(N)c2-c2ccccc2C)cc1C              OVCAR-3          GI50  > 100 µM (inactive)
21  O=C1c2ccc3ccccc3c2CCC1N1CCCCC1 (stereo not given)              OVCAR-3          GI50   15.4 µM (inactive)
22  O=C1c2ccccc2C(=O)c2c(NCCCNCCO)ccc(NCCCNCCO)c21              OVCAR-3          GI50   5.71 µM (inactive)
23  CCN(CC)CCn1c2cc3c(cc2c(=O)c2cccnc21)OCCO3              OVCAR-3          GI50   > 10 µM (inactive)
24  O=c1c2ccccc2c(=O)n2n1-c1cccc(c1)CSSCc1cccc-2c1              OVCAR-3          GI50   > 10 µM (inactive)
25  CCCC(=O)OC(OC(=O)CCC)c1ccc([N+](=O)[O-])o1              OVCAR-3          GI50   20.9 µM (inactive)
